- target system: PDK1 kinase (Homo sapiens, UniProt O15530)
- Sequence (O15530 1-556): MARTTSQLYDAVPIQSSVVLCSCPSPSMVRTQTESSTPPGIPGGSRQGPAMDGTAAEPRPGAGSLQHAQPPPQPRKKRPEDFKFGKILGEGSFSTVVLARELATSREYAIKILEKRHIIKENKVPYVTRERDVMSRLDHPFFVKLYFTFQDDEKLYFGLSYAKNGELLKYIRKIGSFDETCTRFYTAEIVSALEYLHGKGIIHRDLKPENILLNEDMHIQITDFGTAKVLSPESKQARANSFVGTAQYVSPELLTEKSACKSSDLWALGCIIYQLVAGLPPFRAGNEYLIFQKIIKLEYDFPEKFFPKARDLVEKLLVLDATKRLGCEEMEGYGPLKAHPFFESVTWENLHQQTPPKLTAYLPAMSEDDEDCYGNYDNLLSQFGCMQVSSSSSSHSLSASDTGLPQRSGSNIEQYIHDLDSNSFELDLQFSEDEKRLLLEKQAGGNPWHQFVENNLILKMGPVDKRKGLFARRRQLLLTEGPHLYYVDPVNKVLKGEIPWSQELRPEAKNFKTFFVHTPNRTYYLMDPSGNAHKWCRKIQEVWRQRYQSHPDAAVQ
- experiment: PDK1 Kinase Alpha Screen Assay
- Format: biochemical
- condition summary: PDK1 Kinase Alpha Screen Assay; read-out: PDK1 IC50
pIC50: −log10 of the molar value.
The following compounds are shown together with reported pIC50 values.

Here is how some compounds turned out for pIC50.
Clc1cc(Nc2ncc3c(Br)ccc(OC4CCNCC4)c3n2)ccc1N1CCOCC1
> 5.30
CC(C)N1CCC(Oc2cccc3cnc(Nc4cccc(C#N)c4)nc23)CC1
> 5.30
NS(=O)(=O)c1ccc(Nc2ncc3cccc(OC4CN5CCC4CC5)c3n2)cc1 (stereo not shown)
> 5.30
NS(=O)(=O)c1ccc(Nc2ncc3cc(F)cc(-c4ccc(N5CCOCC5)nc4)c3n2)cc1
> 5.30
NS(=O)(=O)c1ccc(Nc2ncc3cccc(-c4ccc(N5CCS(=O)(=O)CC5)nc4)c3n2)cc1
> 5.30
O=C(c1cc(F)cc(Nc2ncc3cccc(OC4CCNCC4)c3n2)c1)N1CCOCC1
> 5.30
NS(=O)(=O)c1ccc(Nc2ncc3ccc(-c4cn[nH]c4)c(OC4CCNCC4)c3n2)cc1
> 5.30
CS(=O)(=O)c1cccc(-c2cccc3cnc(Nc4ccc(S(N)(=O)=O)cc4)nc23)c1
> 5.30
Nc1ccc(S(=O)(=O)N(CCN2CCCC2)c2ncc3cccc(OC4CCNCC4)c3n2)cc1
5.00 to 5.30
Nc1ccc(-c2ccc3cnc(Nc4ccc(S(N)(=O)=O)cc4)nc3c2-c2ccc(N)nc2)cn1
> 5.30

// pIC50 lookup, compound = `CN1CCC(Oc2cccc3cnc(Nc4ccc(S(N)(=O)=O)cc4)nc23)CC1` , result: > 5.30

// pIC50 lookup, compound = `CC(=O)Nc1ccc(Nc2ncc3cccc(OC(C)C)c3n2)cc1` , result: > 5.30

// pIC50 lookup, compound = `CN1CCN(c2ccc(-c3c(-c4cnn(C)c4)ccc4cnc(Nc5ccc(S(N)(=O)=O)cc5)nc34)cn2)CC1` , result: > 5.30

// pIC50 lookup, compound = `COCCNC(=O)c1ccc(Nc2ncc3cccc(OC4CCNCC4)c3n2)cc1F` , result: > 5.30

// pIC50 lookup, compound = `O=S(=O)(c1cccc(Nc2ncc3cccc(-c4ccc(NCCN5CCCC5)nc4)c3n2)c1)N1CCOCC1` , result: > 5.30

// pIC50 lookup, compound = `NS(=O)(=O)c1ccc(Nc2ncc3cc(F)cc(-c4ccc(N5CCNC(=O)C5)nc4)c3n2)cc1` , result: > 5.30
